B1: Caulobacter ParB omega fusion; a variant is named by its letters at X, in order, B8GW30 (parent)
chain: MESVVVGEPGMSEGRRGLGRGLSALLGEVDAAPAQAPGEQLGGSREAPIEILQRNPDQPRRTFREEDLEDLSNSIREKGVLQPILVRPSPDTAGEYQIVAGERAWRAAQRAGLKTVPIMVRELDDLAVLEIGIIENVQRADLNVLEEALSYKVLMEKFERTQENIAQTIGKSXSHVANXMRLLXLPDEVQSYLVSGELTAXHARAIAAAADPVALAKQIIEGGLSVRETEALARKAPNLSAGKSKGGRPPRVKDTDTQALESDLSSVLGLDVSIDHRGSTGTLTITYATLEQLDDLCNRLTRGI

Variants of: B1
Assay: one-hybrid fitness for binding parS DNA (scaled: cognate 1, non-cognate 0); higher = stronger binding
Conditions: with parS DNA site
The full ranking holds about 81,000 sequences; the median of “one-hybrid fitness for binding parS DNA” is about -0.17, and the highest 2% start at about 0.51. Many of the other results were omitted from the sample, so the highest values are more common in it than they were.
I would appreciate it if you labelled entries label 1 when one-hybrid fitness for binding parS DNA is 0.9 or higher, otherwise label 0.

*Q* Determine whether measured one-hybrid fitness for binding parS DNA meets or exceeds 0.9 for RASG
*A* label 1

*Q* Determine whether measured one-hybrid fitness for binding parS DNA meets or exceeds 0.9 for RALP
*A* label 0

*Q* Determine whether measured one-hybrid fitness for binding parS DNA meets or exceeds 0.9 for RMMS
*A* label 1

*Q* Determine whether measured one-hybrid fitness for binding parS DNA meets or exceeds 0.9 for RALG
*A* label 1

*Q* Determine whether measured one-hybrid fitness for binding parS DNA meets or exceeds 0.9 for RLMN
*A* label 0

*Q* Determine whether measured one-hybrid fitness for binding parS DNA meets or exceeds 0.9 for LSRM
*A* label 0

*Q* Determine whether measured one-hybrid fitness for binding parS DNA meets or exceeds 0.9 for SDEV
*A* label 0

*Q* Determine whether measured one-hybrid fitness for binding parS DNA meets or exceeds 0.9 for YTDG
*A* label 0

*Q* Determine whether measured one-hybrid fitness for binding parS DNA meets or exceeds 0.9 for RKMK
*A* label 0

*Q* Determine whether measured one-hybrid fitness for binding parS DNA meets or exceeds 0.9 for TNIS
*A* label 0

*Q* Determine whether measured one-hybrid fitness for binding parS DNA meets or exceeds 0.9 for RASF
*A* label 0

*Q* Determine whether measured one-hybrid fitness for binding parS DNA meets or exceeds 0.9 for RLAT
*A* label 1

*Q* Determine whether measured one-hybrid fitness for binding parS DNA meets or exceeds 0.9 for RASR
*A* label 0

*Q* Determine whether measured one-hybrid fitness for binding parS DNA meets or exceeds 0.9 for LRNA
*A* label 0

*Q* Determine whether measured one-hybrid fitness for binding parS DNA meets or exceeds 0.9 for RQAY
*A* label 0

These data points were gathered from a collection of fitness landscapes (doi:10.1016/j.celrep.2020.107928).
